# Assay Notes: self-splicing fitness, log relative to wild type (ln ratio); higher = more splicing; Tetrahymena group I intron in knt gene, E. coli kanamycin selection, DiMSum; sequences stand for … in CUCUCU…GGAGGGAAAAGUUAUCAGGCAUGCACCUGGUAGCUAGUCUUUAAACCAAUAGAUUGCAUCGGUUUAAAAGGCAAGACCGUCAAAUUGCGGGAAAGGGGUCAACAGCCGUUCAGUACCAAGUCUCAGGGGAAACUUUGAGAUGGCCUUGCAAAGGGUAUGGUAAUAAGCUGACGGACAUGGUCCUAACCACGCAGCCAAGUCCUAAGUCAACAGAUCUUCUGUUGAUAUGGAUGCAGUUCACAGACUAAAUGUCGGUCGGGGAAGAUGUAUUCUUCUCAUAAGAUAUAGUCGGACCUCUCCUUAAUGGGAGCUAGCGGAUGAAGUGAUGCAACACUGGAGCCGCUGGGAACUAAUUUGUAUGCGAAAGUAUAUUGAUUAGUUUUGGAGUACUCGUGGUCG;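 further: selection with 25 µg/mL kanamycin versus none on LB agar overnight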
# Test Settings: 30 °C
Lab note: anything with self-splicing fitness (ln) at or over -2 counts as Met; the rest go in Not met.

Assess whether reported self-splicing fitness (ln) for GGCUAGCAAUAUUACGACCU sits at -2 or higher. Met

---

# Assay Notes: self-splicing fitness, log relative to wild type (ln ratio); higher = more splicing; Tetrahymena group I intron in knt gene, E. coli kanamycin selection, DiMSum; sequences stand for … in CUCUCU…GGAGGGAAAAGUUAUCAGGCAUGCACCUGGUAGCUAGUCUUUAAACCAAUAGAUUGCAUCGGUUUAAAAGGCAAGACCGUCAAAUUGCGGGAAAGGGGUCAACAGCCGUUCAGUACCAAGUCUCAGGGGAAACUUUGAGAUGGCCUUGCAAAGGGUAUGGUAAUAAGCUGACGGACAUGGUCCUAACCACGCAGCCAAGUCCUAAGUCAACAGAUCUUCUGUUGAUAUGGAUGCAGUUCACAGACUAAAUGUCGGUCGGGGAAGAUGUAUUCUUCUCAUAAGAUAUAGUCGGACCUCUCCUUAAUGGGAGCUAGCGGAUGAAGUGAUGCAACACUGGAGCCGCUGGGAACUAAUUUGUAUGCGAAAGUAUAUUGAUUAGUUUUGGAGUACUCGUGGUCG
# Test Settings: 30 °C
// map self-splicing fitness (ln) onto a label; ranges low = under -3, medium = from -3 up to -2, high = -2 and over

Sequence Text	Class Name
AGACAGCAAUAUUACGCAAU	medium
GCCCAGCAAUAUUACGGGCG	medium
CGUGAGCAAUAUUACGGUUU	low

Determine which band this sequence sits in: GUUCAGCAAUAUUACGUUUA high

Determine which band this sequence sits in: AAGCAGCAAUAUUACGAAUG low

Determine which band this sequence sits in: AGGUAGCAAUAUUACGUGCG high

Determine which band this sequence sits in: GUUAAGCAAUAUUACGUCUG high

Determine which band this sequence sits in: AUGGAGCAAUAUUACGCUCA high

Determine which band this sequence sits in: ACCUAGCAAUAUUACGCUAA medium

---

# Assay Notes: self-splicing fitness, log relative to wild type (ln ratio); higher = more splicing; Tetrahymena group I intron in knt gene, E. coli kanamycin selection, DiMSum; sequences stand for … in CUCUCU…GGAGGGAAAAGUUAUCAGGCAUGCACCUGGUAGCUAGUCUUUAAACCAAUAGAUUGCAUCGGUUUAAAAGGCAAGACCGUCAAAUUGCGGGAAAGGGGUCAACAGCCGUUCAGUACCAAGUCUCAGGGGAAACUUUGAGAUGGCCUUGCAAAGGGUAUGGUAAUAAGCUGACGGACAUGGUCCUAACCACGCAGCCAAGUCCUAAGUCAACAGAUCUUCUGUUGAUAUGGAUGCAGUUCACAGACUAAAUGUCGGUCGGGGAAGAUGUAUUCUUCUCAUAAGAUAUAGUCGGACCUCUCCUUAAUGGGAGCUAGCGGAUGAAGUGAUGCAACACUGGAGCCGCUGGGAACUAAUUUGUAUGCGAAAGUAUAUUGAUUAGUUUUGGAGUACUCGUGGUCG
# Test Settings: 37 °C
Consider the following sequences and their measured self-splicing fitness (ln) readings.

Study these solved cases before continuing.
Sequence Text	Endpoint Result
UGUUAGCAAUAUUACGUUCA	-0.114
GCUCAGCAAUAUUACGAUGA	-2.26
GACCAGCAAUAUUACGCAUA	-0.452
CCCUAGCAAUAUUACGCAAG	-2.06
GAUCAGCAAUAUUACGCAAU	0.129
GAUUAGCAAUAUUACGUUUU	-1.59

The sequence listed as UGCUAGCAAUAUUACGGUGG has a reported self-splicing fitness (ln) of -1.33

The sequence listed as AAUAAGCAAUAUUACGAUAU has a reported self-splicing fitness (ln) of -0.747

The sequence listed as CGGGAGCAAUAUUACGUCUG has a reported self-splicing fitness (ln) of -2.03

The sequence listed as CUAAAGCAAUAUUACGUUCU has a reported self-splicing fitness (ln) of -3.07

The sequence listed as AUCAAGCAAUAUUACGAACC has a reported self-splicing fitness (ln) of -0.734

---

# Assay Notes: self-splicing fitness, log relative to wild type (ln ratio); higher = more splicing; Tetrahymena group I intron in knt gene, E. coli kanamycin selection, DiMSum; sequences stand for … in CUCUCU…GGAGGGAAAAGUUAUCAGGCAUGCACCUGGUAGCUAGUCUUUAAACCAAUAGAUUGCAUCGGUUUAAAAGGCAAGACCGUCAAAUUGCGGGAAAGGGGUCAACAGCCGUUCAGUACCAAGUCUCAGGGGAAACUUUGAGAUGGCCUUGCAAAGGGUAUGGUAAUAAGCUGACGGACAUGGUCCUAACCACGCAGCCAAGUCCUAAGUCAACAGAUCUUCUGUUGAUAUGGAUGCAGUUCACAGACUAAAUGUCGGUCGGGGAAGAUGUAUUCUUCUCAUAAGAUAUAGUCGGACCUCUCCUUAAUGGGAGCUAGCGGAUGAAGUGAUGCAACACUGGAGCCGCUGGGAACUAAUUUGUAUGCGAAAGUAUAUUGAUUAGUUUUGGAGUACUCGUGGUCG
# Test Settings: 37 °C
Measure Name: self-splicing fitness (ln)
When you answer, write just the number.

The sequence listed as AGUUAGCAAUAUUACGGCUG has a reported self-splicing fitness (ln) of -0.309

The sequence listed as GCGAAGCAAUAUUACGCUUU has a reported self-splicing fitness (ln) of -2.03

The sequence listed as ACACAGCAAUAUUACGACUU has a reported self-splicing fitness (ln) of 0.0165

The sequence listed as UAAAAGCAAUAUUACGAGGG has a reported self-splicing fitness (ln) of -2.47

The sequence listed as UCGAAGCAAUAUUACGGUUG has a reported self-splicing fitness (ln) of -0.93

The sequence listed as GCCAAGCAAUAUUACGCCUC has a reported self-splicing fitness (ln) of -0.316

The sequence listed as GCGCAGCAAUAUUACGCGUU has a reported self-splicing fitness (ln) of -2.06

The sequence listed as UAACAGCAAUAUUACGGCUA has a reported self-splicing fitness (ln) of -0.0982

---

# Assay Notes: self-splicing fitness, log relative to wild type (ln ratio); higher = more splicing; Tetrahymena group I intron in knt gene, E. coli kanamycin selection, DiMSum; sequences stand for … in CUCUCU…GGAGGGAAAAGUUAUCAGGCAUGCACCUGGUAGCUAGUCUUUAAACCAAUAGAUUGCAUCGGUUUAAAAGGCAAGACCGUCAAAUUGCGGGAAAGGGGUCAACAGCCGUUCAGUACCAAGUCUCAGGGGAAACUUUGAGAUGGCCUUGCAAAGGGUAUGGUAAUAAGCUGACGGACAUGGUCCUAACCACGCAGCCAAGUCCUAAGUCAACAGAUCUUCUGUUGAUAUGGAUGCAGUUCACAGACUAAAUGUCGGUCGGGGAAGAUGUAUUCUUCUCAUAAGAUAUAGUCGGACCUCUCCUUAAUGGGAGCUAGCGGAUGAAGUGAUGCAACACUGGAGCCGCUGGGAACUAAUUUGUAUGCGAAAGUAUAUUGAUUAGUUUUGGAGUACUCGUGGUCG
# Test Settings: 37 °C
Measure Name: self-splicing fitness (ln)
When you answer, write just the number.

Study these solved cases before continuing.
Sequence Text	Endpoint Result
CCUGAGCAAUAUUACGUUCU	-2.43
AGGGAGCAAUAUUACGGUGC	-3.06
GAUCAGCAAUAUUACGUCAG	-2.43
GUGAAGCAAUAUUACGCCGA	-0.474
AUUUAGCAAUAUUACGGUUA	-0.183
AUGAAGCAAUAUUACGGAGG	-0.72

The sequence listed as UACCAGCAAUAUUACGCGCA has a reported self-splicing fitness (ln) of -0.42

The sequence listed as CUAGAGCAAUAUUACGUUAU has a reported self-splicing fitness (ln) of -2.3

Source of measurements: the supplement of paper PMC7877785
